# System: SR
# experimentSummary: NCI tumour cell line growth inhibition, 48 h
Active and inactive are the calls of the source. Cut-off read from the data, not from the text of the source: active = GI50 up to about 1.1 µM and inactive = higher.
Measured GI50 values are reported for all entries that follow.
recordedEndpoint: GI50

1) COc1ccccc1-n1cnc2c1=NC(C)(C)NC=2C(N)=O	> 100 µM (inactive)
2) CCNC(=O)Nc1cccc(C)n1	> 100 µM (inactive)
3) C=C1C(=O)O[C@H]2C1C[C@H](O)/C(C)=C/CC[C@@]1(C)O[C@H]21 (stereo partly specified)	6.04 µM (inactive)
4) Clc1ccc(CCN(CCc2ccc(Cl)c(Cl)c2)CCN2CCCC2)cc1Cl	2.01 µM (inactive)
5) NC(CCOCCP(=O)(O)CCOCCC(N)C(=O)O)C(=O)O (stereo unspecified)	> 100 µM (inactive)
6) O=C(CC(C(=O)c1ccco1)c1cccs1)c1cccs1 (stereo unspecified)	34.6 µM (inactive)
